Record set: IC50 | Tyrosine-protein kinase JAK2 (Homo sapiens, UniProt O60674) | literature, multiple sources.
property label: IC50 (nM)

>>> measured_number("C=C1C(=O)O[C@H]2C[C@H](C)C(/C=C/C(C)=O)=CC[C@H]12")
4080
>>> measured_number("CC(=O)c1cc2c(o1)C(=O)c1ccccc1C2=O")
12.6
>>> measured_number("C=CC(=O)Nc1cccc(Nc2nc(Nc3ccc(N4CCN(C)CC4)nc3OC)ncc2C(F)(F)F)c1")
4960

A. Nc1n[nH]c2ccc(-c3ccc(NS(=O)(=O)c4cccc(Cl)c4)cc3)cc12
B. C=CC(=O)Nc1cccc(-c2c[nH]c3ncccc23)c1
C. CCC(=O)c1cc2c(o1)C(=O)c1ccccc1C2=O
Query string: // sort entries: IC50, high to low Sort the labels as requested; that list is your answer.
Result string: B, C, A
(B: 3580 nM, C: 11.1 nM, A: 7 nM)
